system.name: T1, Human TNFa N-his trimers (His-tagged TNF, produced at ESBATech) (human, UniProt P01375 77-233)
T1 construct: Captured as trimers on a Ni-NTA sensor chip by the N-terminal His tags in the Biacore assay of the general methods; also called human TNFα; human TNF alpha; not shown: N-terminal His tag
experiment.notes: SPR (BIAcore T100), His-tagged human TNF captured on NTA chip, scFv as analyte
Reported koff values for the following binders.

- binder: "EP15_min (scFv, scFv NH2-VL-(GGGGS)4-VH-COOH; also called 1073) scFv: EIVMTQSPSTLSASVGDRVIITCQASENIYTSLAWYQQKPGKAPKLLIYSASTLASGVPSRFSGSGSGAEFTLTISSLQPDDFATYYCQQGFATSNVENPFGQGTKLTVLGGGGGSGGGGSGGGGSGGGGSEVQLVESGGGLVQPGGSLRLSCAASGFTFSRYGVSWVRQAPGKGLEWVSAIGETGRAYYANWAKSRFTISRDNSKNTLYLQMNSLRAEDTAVYYCAKGEEFNNGWGAFNIWGQGTLVTVSS"
  koff: "0.041 s⁻¹"
- binder: "EP43_min (scFv, scFv NH2-VL-(GGGGS)4-VH-COOH; also called 705) scFv: EIVMTQSPSTLSASVGDRVIITCQASQSISDWLAWYQQKPGKAPKLLIYGASRLASGVPSRFSGSGSGAEFTLTISSLQPDDFATYYCQQGWSDSYVDNLFGQGTKLTVLGGGGGSGGGGSGGGGSGGGGSEVQLVESGGGLVQPGGSLRLSCAASGFSLSSGAMSWVRQAPGKGLEWVSVIISSGATYYASWAKGRFTISRDNSKNTLYLQMNSLRAEDTAVYYCAKGGPDDSNSMGTFDPWGQGTLVTVSS"
  koff: "0.0298 s⁻¹"

src = patent US20140193400A1
